Molecular target: T1, truncated hTfR1 of SEQ ID NO:122 (human, UniProt P02786 122-760)
T1 construct: also called human TfR1; Human TfR1
T1 sequence (P02786 other isoform, or with tags, fused parts or gaps limits assumed): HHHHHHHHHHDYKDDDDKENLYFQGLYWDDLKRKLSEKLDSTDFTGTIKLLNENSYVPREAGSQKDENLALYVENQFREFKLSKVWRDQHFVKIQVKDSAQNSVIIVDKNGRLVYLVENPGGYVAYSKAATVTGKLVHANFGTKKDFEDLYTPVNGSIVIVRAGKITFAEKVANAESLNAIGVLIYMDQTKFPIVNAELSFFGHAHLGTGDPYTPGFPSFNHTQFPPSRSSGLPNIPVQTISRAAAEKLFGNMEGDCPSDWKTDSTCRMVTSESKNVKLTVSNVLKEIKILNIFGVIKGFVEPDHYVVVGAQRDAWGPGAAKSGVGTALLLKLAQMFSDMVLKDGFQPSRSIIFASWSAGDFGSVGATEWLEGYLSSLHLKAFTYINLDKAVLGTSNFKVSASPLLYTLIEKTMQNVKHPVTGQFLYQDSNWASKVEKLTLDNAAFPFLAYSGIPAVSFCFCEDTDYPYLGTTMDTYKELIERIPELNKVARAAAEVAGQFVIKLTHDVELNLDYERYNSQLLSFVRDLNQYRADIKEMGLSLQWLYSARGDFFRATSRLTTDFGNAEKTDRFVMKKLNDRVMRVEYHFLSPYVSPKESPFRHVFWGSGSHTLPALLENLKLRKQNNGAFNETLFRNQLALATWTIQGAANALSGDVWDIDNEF
Assay: SPR, FLAG-captured TfR1, scFv injected, 1:1 fit
attribute_measured: kon
Answer format: number, then unit.

1. h26D3 HC6 DS L118S (scFv, also called h26D3 DS L118S) scFv: HHHHHHGGGGSGGGGSGGGGSGGGGSDIQMTQSPSSVSASVGDRVTITCKSSQSLLYSTNQKNYLAWYQQKPGKAPKLLIYWASTRESGVPSRFSGSGSGTDFTLTISSLQPEDFATYYCQQYFIYPRTFGCGTKVEIKGGGGSGGGGSGGGGSGGGGSEVQLVQSGAEVKKPGSSVKVSCKASGYIFTDYNMDWVRQAPGQCLEWIGDINPDADTTSYNEKFKGRATLTVDKSTSTAYMELSSLRSEDTAVYYCARGGYSGSSYYHPMDYWGQGTSVTVSS: 66200 M⁻¹ s⁻¹

Pending binder:
Just so you know, measured kon for h26D3 HC6 DS T91S S122K (scFv, also called h26D3 DS T91S S122K) scFv: HHHHHHGGGGSGGGGSGGGGSGGGGSDIQMTQSPSSVSASVGDRVTITCKSSQSLLYSTNQKNYLAWYQQKPGKAPKLLIYWASTRESGVPSRFSGSGSGTDFTLTISSLQPEDFATYYCQQYFIYPRTFGCGTKVEIKGGGGSGGGGSGGGGSGGGGSEVQLVQSGAEVKKPGSSVKVSCKASGYIFTDYNMDWVRQAPGQCLEWIGDINPDADTTSYNEKFKGRATLTVDKSTSTAYMELSSLRSEDSAVYYCARGGYSGSSYYHPMDYWGQGTLVTVKS came out at 76200 M⁻¹ s⁻¹
